# TARGET OR TEST SYSTEM: LTB4 receptor (Cavia porcellus, UniProt H0VYV8)
# Sequence (H0VYV8 1-348): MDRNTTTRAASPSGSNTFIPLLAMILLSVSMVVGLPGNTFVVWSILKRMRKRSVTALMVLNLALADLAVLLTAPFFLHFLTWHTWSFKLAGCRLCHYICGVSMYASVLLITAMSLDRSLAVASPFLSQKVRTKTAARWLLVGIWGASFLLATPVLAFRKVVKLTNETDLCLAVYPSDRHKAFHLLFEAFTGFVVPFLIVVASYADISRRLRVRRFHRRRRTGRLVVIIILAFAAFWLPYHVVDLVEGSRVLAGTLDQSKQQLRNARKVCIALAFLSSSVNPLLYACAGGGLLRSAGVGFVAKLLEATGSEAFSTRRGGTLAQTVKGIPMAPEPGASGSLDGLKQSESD
# TEST SUMMARY: LTB4 binding assay, displacement of [3H]LTB4, guinea pig spleen membrane
EXPERIMENTAL READOUT: Ki (nM)

| COMPOUND | Ki / nM |
| --- | --- |
| CCC1C(C)=NN=C(c2ccc(OC)c(OC)c2)c2cc(OC)c(OC)cc21 (racemic) [Racemic tofisopam] | 4520 |

A: CC[C@H]1C(C)=NN=C(c2ccc(OC)c(OC)c2)c2cc(OC)c(OC)cc21 [(R)-tofisopam]
B: CC[C@@H]1C(C)=NN=C(c2ccc(OC)c(OC)c2)c2cc(OC)c(OC)cc21 [(S)-tofisopam]
Inquiry: Could you tell me which of A and B has the lower Ki reading? Let me know the label of the one you choose.
Reply text: A
